Record form. Attribute: T/C. Fill in for each entry.
test system: BDF1 mice, P388 leukemia ip, median survival T/C; test: NCI In Vivo Anticancer Drug Screen. Data for tumor model P388 Leukemia (intraperitoneal) in B6D2F1 (BDF1) mice; conditions: endpoint: median survival time; dose: 25.0 mg/kg/injection; schedule: Q04DX003 (ip); vehicle: other; higher = longer survival
Toxic doses and inconclusive results are not listed.

Please review the following examples before continuing.
* CC(C#N)(Nc1ccccc1)c1ccco1 (stereo not given) | 100 % of control
* FC(F)(F)/C([S-])=C(/[S-])C(F)(F)F.FC(F)(F)/C([S-])=C(/[S-])C(F)(F)F.FC(F)(F)/C([S-])=C(/[S-])C(F)(F)F.FC(F)(F)/C([S-])=C(/[S-])C(F)(F)F.[Co+3].[Co+3] | 120 % of control
* ClC1=C(Cl)C2(Cl)C(Br)C(Br)C1(Cl)C2(Cl)Cl (stereo not given) | 118 % of control

Below are 2 compounds. Give each one its T/C.
1. c1ccc(CN2CCn3nccc32)cc1
2. CCCNC(C)(C)C(SS)c1ccc(C(F)(F)F)cc1 (stereo not given)

1. 91 % of control
2. 110 % of control

Values compiled from PubChem BioAssay AID328.
